Test system: HOP-18
Experiment: NCI tumour cell line growth inhibition, 48 h
Activity calls are given as the source filed them. No stated cut-off is given here; in the data, active = GI50 up to about 1.1 µM and inactive = higher.
Pick one: active, inactive

{"columns": ["molecule", "class"],
 "data": [
  ["CC1(C)CCc2cc3c(cc2O1)OC(C)(C)C1c2c(ccc4c2CCC(C)(C)O4)OC31 (centres undefined)", "active"],
  ["COc1ccc2c([nH]c3c(O)c(-c4c(C)cc5c([nH]c6c(CC=C(C)C)c(OC)ccc65)c4O)c(C)cc32)c1CC=C(C)C [BISMURRAYAFOLINE B]", "inactive"],
  ["C[C@]12CCC3c4ccc(OC(=O)c5ccccc5)cc4CC[C@H]3C1CC[C@@H]2OC(=O)C12OC1CCC2=O (some centres undefined)", "inactive"],
  ["COc1ccc(S(=O)(=O)N/N=C/c2cc(I)cc([N+](=O)[O-])c2O)cc1OC", "inactive"],
  ["O=C(/C=C/c1ccccc1O)c1cccs1", "inactive"],
  ["CCCCN(CCCC)C(=O)C(=O)CC(=O)/C=C/c1ccccc1", "inactive"],
  ["Cn1cc(-c2ccc3c4ccccc4n(C)c3c2)c2ccccc21", "inactive"],
  ["CC(=O)c1ccc2c(c1)c1c(C)c3c[n+](C)ccc3c(C)c1n2C", "inactive"]
]}

[in] In this assay, the call recorded for CC1(O)C(C)(O)C(C)(O)C1(C)O (centres undefined) was what?
[out] inactive

###

Test system: RXF 393
Assay: NCI tumour cell line growth inhibition, 48 h
Activity calls are given as the source filed them. No stated cut-off is given here; in the data, active = GI50 up to about 1.1 µM and inactive = higher.
measureName: GI50

Worked cases, GI50 given:
{"columns": ["molecule", "measValue"],
 "data": [
  ["C/C(CC(=O)Nc1ccc(C)c(C)c1)=N\\N(c1ccccc1)c1ccccc1", "63.2 µM (inactive)"],
  ["CCC1(c2ccccc2)Sc2ccccc2-n2cccc2C1=O (stereo unspecified)", "9.79 µM (inactive)"],
  ["O=C(/C=C/c1ccccc1O)c1cccs1", "> 100 µM (inactive)"]
]}

[in] # return recorded GI50 for input CC1=C(C(=O)Nc2ccc([N+](=O)[O-])cc2)C(c2cccc([N+](=O)[O-])c2)C(C(=O)Nc2ccc([N+](=O)[O-])cc2)=C(C)N1
[out] 16.2 µM (inactive)

[in] Please give the documented GI50 of CO[P@]1(=O)O[C@@H](c2ccccc2)[C@H](O)[C@]1(O)c1ccccc1
[out] > 100 µM (inactive)

[in] Supply measured GI50 of CCNC(=O)Nc1cccc(NC(=O)NCC)n1 in your reply.
[out] > 100 µM (inactive)

###

Test system: UACC-257
Experiment: NCI tumour cell line growth inhibition, 48 h
The source made the active and inactive calls. No stated cut-off is given here; in the data, active = GI50 up to about 1.1 µM and inactive = higher.
Quick reference: GI50 of the listed items.

Reference set (5 entries):
{"columns": ["molecule", "assayedTarget", "GI50"],
 "data": [
  ["Nc1ccc2nc3n(c2c1)C(c1c(F)cccc1F)SC3 (stereo unspecified)", "UACC-257", "89.1 µM (inactive)"],
  ["COc1cc2ccc3c4c(OC)cc(OC)c(OC)c4c([O-])[n+](C)c3c2cc1OC", "UACC-257", "17.9 µM (inactive)"],
  ["COc1ccc2cc1Oc1ccc(cc1)C[C@@H]1c3cc(c(OC)cc3CCN1C)Oc1c(OC)c(OC)cc3c1[C@H](C2)N(C)CC3", "UACC-257", "11.3 µM (inactive)"],
  ["CCOC(=O)NN1C(=O)C(=P(c2ccccc2)(c2ccccc2)c2ccccc2)C(C(=O)OC)=C1C", "UACC-257", "> 100 µM (inactive)"],
  ["Cc1ccccc1C1CC(=O)CC(c2ccccc2C)C12C(=O)NC(=O)NC2=O (stereo unspecified)", "UACC-257", "> 100 µM (inactive)"]
]}

[in] Return reported GI50. Input molecule: O=c1c2c(F)c(F)c(F)c(F)c2sc2nccn12
[out] 13 µM (inactive)

[in] In one line, give reported GI50 of the entry CCC1(c2ccccc2)Sc2ccccc2-n2cccc2C1=O (stereo unspecified) .
[out] > 10 µM (inactive)

[in] Give the reported value of GI50 for this record: COc1cc2c(cc1OC)CC1c3cc(OC)c(OC)cc3CCN1CC2 (stereo unspecified)
[out] > 100 µM (inactive)

[in] Quickly give me recorded GI50 for CN1N=C(c2ccncc2)OC1c1cccc(F)c1 (stereo unspecified)
[out] > 100 µM (inactive)

[in] Supply GI50 value. Item: CN(C)/C(=N\C#N)N(Cc1ccccc1)Cc1ccccc1
[out] > 100 µM (inactive)

[in] Identify measured GI50 associated with c1cc2c(cnc3cscc32)s1
[out] > 100 µM (inactive)

###

Test system: UACC-257
Test: NCI tumour cell line growth inhibition, 48 h
Active and inactive are the calls of the source. Cut-off read from the data, not from the text of the source: active = GI50 up to about 1.1 µM and inactive = higher.
measureName: GI50

Previously resolved entries follow.
{"columns": ["molecule", "GI50"],
 "data": [
  ["CCOC(=O)C1=C(C)N(NC(=O)c2ccccc2)C2(O)CCCC12C(=O)OCC (centres undefined)", "> 100 µM (inactive)"],
  ["NC1CNC(=O)c2c(Cl)sc(Cl)c21 (centres undefined)", "> 100 µM (inactive)"],
  ["O=C(/C=C/c1ccccc1O)c1cccs1", "> 100 µM (inactive)"],
  ["O=C1C=CC(O)(C#CCO)C=C1", "14.6 µM (inactive)"]
]}

[in] Please supply the value of reported GI50 for the item Cc1ccc(NC(=O)CC/C(CC(=O)C(C)(C)C)=N/NC(=O)c2cc3ccccc3cc2O)cc1C
[out] 38.1 µM (inactive)

[in] Name the recorded GI50 of the molecule listed here: C[C@]12C[C@@H](OC(=O)[C@]1(C)O)[C@@H]([C@]1(O)CC[C@H]3[C@@H]4C[C@H]5O[C@]56C[C@H]5O[C@H]5C(=O)[C@]6(C)[C@H]4CC[C@@]31C)C2
[out] > 50 µM (inactive)

[in] Identify GI50 associated with the molecule O=C1C=C(Nc2ccccc2C(=O)CC(=O)C(=O)Nc2ccc(Cl)c(Cl)c2)c2ccccc2C1=O
[out] 20.9 µM (inactive)

[in] Let me know recorded GI50 for COC(=O)[C@]12CC3C=CC1N(C3)C(CBr)c1c2n(S(=O)(=O)c2ccccc2)c2ccccc12 (some centres undefined) , thanks.
[out] > 100 µM (inactive)

[in] State its GI50 for this molecule: Cn1c(=O)c2c(ncn2CCSS(=O)(=O)O)n(C)c1=O
[out] > 100 µM (inactive)

###

System: EKVX
Experiment: NCI tumour cell line growth inhibition, 48 h
The source made the active and inactive calls. Cut-off read from the data, not from the text of the source: active = GI50 up to about 1.1 µM and inactive = higher.
measureName: GI50

{"columns": ["compound", "measValue"],
 "data": [
  ["O=C1NC(=O)C(C(CC(=O)c2ccc(Cl)cc2)c2ccc(Cl)cc2)C(=O)N1 (stereo not given)", "17.1 µM (inactive)"],
  ["CCOP(=O)(OCC)/C(C#N)=C/c1ccccn1", "> 100 µM (inactive)"],
  ["N#Cc1cccc(/C=N/C23CC4CC(CC(C4)C2)C3)c1", "> 100 µM (inactive)"],
  ["OCCCN(CCc1ccc(Cl)c(Cl)c1)CCN1CCCC1", "> 100 µM (inactive)"],
  ["COc1ccc(C2=CC3CCC2C3)cc1 (stereo not given)", "> 100 µM (inactive)"],
  ["C[C@]12C[C@@H](OC(=O)[C@]1(C)O)[C@@H]([C@]1(O)CC[C@H]3[C@@H]4C[C@H]5O[C@]56C[C@H]5O[C@H]5C(=O)[C@]6(C)[C@H]4CC[C@@]31C)C2", "> 50 µM (inactive)"],
  ["COc1cc2ccc3c4c(OC)cc(OC)c(OC)c4c([O-])[n+](C)c3c2cc1OC", "22.2 µM (inactive)"],
  ["C[N+](C)(C)CC1CCc2ccccc2C1=O (stereo not given)", "7.76 µM (inactive)"]
]}

[in] Provide only the value of recorded GI50 for CC1C=C(OC(=O)c2ccccc2)C(=O)C(n2cc(F)c(=O)n(C(=O)c3ccccc3)c2=O)O1 (stereo not given)
[out] > 100 µM (inactive)

[in] For Oc1cc(-c2c[nH]c3ccccc23)nc2cc3c(cc12)OCO3 , write its GI50.
[out] > 100 µM (inactive)

[in] State, in one line, measured GI50 of Cc1ccc(/N=N/c2c(O)ccc3cc(S(=O)(=O)O)ccc23)cc1
[out] 29.6 µM (inactive)

[in] Respond only with GI50 recorded for CCOC(=O)N1CCc2cc(OC)c(OC)cc2/C1=C\c1ccc(OC)c(OC)c1
[out] 28.1 µM (inactive)

[in] // Input: O=C(OCCN=c1c2ccccc2ccc2ccccc12)c1cc([N+](=O)[O-])cc([N+](=O)[O-])c1 . Output its GI50 only.
[out] > 100 µM (inactive)

###

System: SF-268
Experiment: NCI tumour cell line growth inhibition, 48 h
The source made the active and inactive calls. No stated cut-off is given here; in the data, active = GI50 up to about 1.1 µM and inactive = higher.
# valid calls are true (1) = active, false (0) = inactive; nothing else

{"columns": ["compound", "assayedTarget", "class"],
 "data": [
  ["C[C@]12C[C@@H](OC(=O)[C@]1(C)O)[C@@H]([C@]1(O)CC[C@H]3[C@@H]4C[C@H]5O[C@]56C[C@H]5O[C@H]5C(=O)[C@]6(C)[C@H]4CC[C@@]31C)C2", "SF-268", "false (0)"],
  ["COc1ccc(C2=CC3CCC2C3)cc1 (stereo not given)", "SF-268", "false (0)"]
]}

[in] Outcome logged for CC1(O)C(C)(O)C(C)(O)C1(C)O (stereo not given) in this assay:
[out] false (0)

[in] // outcome(item) with item = COC(=O)C1=C(c2ccc(OC)c(OC)c2)OC(c2cc(OC)c(OC)c(OC)c2)C1 (stereo not given)
[out] false (0)

[in] What did the test return for C=CCOC1=C(OC(C)=O)C(C2COC(C)(C)O2)OC1=O (stereo not given) ?
[out] false (0)

[in] How did this test come out for O=c1[nH]nc(Cc2ccccc2)[nH]1 ?
[out] false (0)

[in] Which outcome did this test record for the compound C#C[C@]1(O)CC[C@H]2[C@@H]3CCC4=C/C(=N\OCCN5CCCCC5)CC[C@]4(C)[C@H]3CC[C@@]21C ?
[out] false (0)

[in] Just curious, what result did OC1(c2ccc(Cl)cc2)c2c(ccc3c2OCO3)C2=NCCN21 (stereo not given) get here?
[out] false (0)

[in] Short answer needed: outcome of this test for O=c1c2cccnc2ncn1CCN1CCCC1 ?
[out] false (0)

[in] For this compound, state the assay outcome: COc1cccc(-c2cc(O)c3cccnc3n2)c1
[out] true (1)

[in] Dear all, I need the recorded test outcome for CCCCNC(=O)OCC(COc1ccccc1OC)OC(=O)NCCCC (stereo not given) , thank you.
[out] false (0)

[in] Record lookup: outcome of this test for O=C(c1ccccc1)c1c(CC(O)c2cccnc2)n(C(=O)c2ccccc2)c2ccccc12 (stereo not given) ?
[out] false (0)

[in] Outcome logged for CC[N+](CC)(CC)/C(=N\S(=O)(=O)c1ccc(Cl)cc1)[N-]S(=O)(=O)c1cc(C)c(Cl)cc1S in this assay:
[out] false (0)

[in] How was O=S(=O)(O)c1cc(S(=O)(=O)O)c2c(/N=N/c3ccccc3)c(O)ccc2c1 classified in this test?
[out] false (0)

[in] Test call for this compound, please: CCCCC#COS(=O)(=O)c1ccc(C)cc1
[out] false (0)

[in] Could you please tell me the result logged for COc1cc2c(c(O)c1OC)-c1c(cc(OC)c(OC)c1OC)CC(C)C(C)C2 (stereo not given) in this assay?
[out] false (0)

[in] How did this test come out for CC1(COS(=O)(=O)OCC2(C)COS(=O)(=O)OC2)COS(=O)(=O)OC1 ?
[out] false (0)

[in] Test call, this compound: CCOC(=O)CCC(C(=O)OCC)n1nnc2ccc(Nc3c(C)[n+]([O-])c4ccc(Cl)cc4[n+]3[O-])cc21 (stereo not given)
[out] false (0)

[in] Assay outcome for CCCCCCCCCCCCCCCC(=O)OCC1OC(OC)C2NP(=O)(N(CCCl)CCCl)OC1C2O (stereo not given) : what was it?
[out] false (0)

[in] Entry CCOC(=O)CSc1cc[nH]c(=O)n1 : call = ?
[out] false (0)
